Test: amyloid nucleation score (Sup35N fusion, yeast selection) (log enrichment); library NNK3; higher = more nucleation; inactive = no reads after selection;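 further: zero at mode of non-aggregating sequences after 7 days selection at 30°C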
Attribute Measured: amyloid nucleation score

| Substance | Attribute Measured | Value |
| --- | --- | --- |
| CYLFVLL | amyloid nucleation score | inactive |
| LAMAPITKSSKLMLAFMR | amyloid nucleation score | inactive |
| ASVYTN | amyloid nucleation score | inactive |
| YCSCNEGGLDPSLTMTL | amyloid nucleation score | inactive |
| SGGTEKRSKRAGLLLFRTEE | amyloid nucleation score | inactive |

Sample `SAYVYTD` — what was its amyloid nucleation score?
-0.156

Sample `YGVYINEAVEVRGPHAYMTS` — what was its amyloid nucleation score?
inactive

Sample `DRAAMFSNSVQSCICTWMNI` — what was its amyloid nucleation score?
2.17

Sample `CRRIYPFRP` — what was its amyloid nucleation score?
-0.064

Sample `MELCTLMCHYVVYSVVNWTY` — what was its amyloid nucleation score?
inactive

Sample `NLTRGYISRKRMSCPQ` — what was its amyloid nucleation score?
inactive

Sample `SSCSSDLAKQYGDMTFI` — what was its amyloid nucleation score?
inactive

Sample `CRSLSLTSGIKF` — what was its amyloid nucleation score?
inactive

Sample `PHTSMDALEMSD` — what was its amyloid nucleation score?
inactive

Sample `LSTNTERAFTAWNVIGELGD` — what was its amyloid nucleation score?
inactive

Sample `RSDVYCWDNYRLEGSGQSSL` — what was its amyloid nucleation score?
inactive

Sample `GADDVTNRRTVVVSTQALCL` — what was its amyloid nucleation score?
inactive

Sample `RCLTEA` — what was its amyloid nucleation score?
inactive

###

Assay: amyloid nucleation score (Sup35N fusion, yeast selection) (log enrichment); library NNK3; higher = more nucleation; inactive = no reads after selection
Attribute Measured: amyloid nucleation score

| Substance | Attribute Measured | Value |
| --- | --- | --- |
| ECGFKKR | amyloid nucleation score | -0.383 |
| TQFIELS | amyloid nucleation score | 0.199 |
| TKCNDYFNVSRYSSLDS | amyloid nucleation score | inactive |
| MDSCFRYVTYVTVLGLK | amyloid nucleation score | inactive |
| AVSSVLIHALYLVGMLPPSN | amyloid nucleation score | 1.83 |

Sample `ILDTEHYLMYKVSPAVASLS` — what was its amyloid nucleation score?
inactive

Sample `GVEIRYLQQ` — what was its amyloid nucleation score?
inactive

Sample `VTCSRSLRLSKMFPNKMFLI` — what was its amyloid nucleation score?
inactive

Sample `RGCGVQMS` — what was its amyloid nucleation score?
0.882

###

Assay: amyloid nucleation score (Sup35N fusion, yeast selection) (log enrichment); library NNK3; higher = more nucleation; inactive = no reads after selection
Attribute Measured: amyloid nucleation score

Worked cases, answers included:
| Substance | amyloid nucleation score |
| --- | --- |
| LALAVGQRDRVLFVKVPVLR | inactive |
| RYRLKM | inactive |
| WHSKKLRICHLGCFVQTDWV | inactive |
| PCPLRTTVW | inactive |
| QNHSNVGTFDDSA | inactive |
| YSVSEIRKSHLWITINMAVF | inactive |

Sample `PLYVQSG` — what was its amyloid nucleation score?
inactive

Sample `LRAKFLILWSRFMQGMQGVT` — what was its amyloid nucleation score?
inactive

Sample `NHSVNAARNLQHQSYCKKSV` — what was its amyloid nucleation score?
inactive

Sample `SPFPLEPFS` — what was its amyloid nucleation score?
inactive

Sample `EIVRRSSVISCHRT` — what was its amyloid nucleation score?
inactive

Sample `SWNRGNLTM` — what was its amyloid nucleation score?
inactive

###

Assay: amyloid nucleation score (Sup35N fusion, yeast selection) (log enrichment); library NNK2; higher = more nucleation; inactive = no reads after selection
Decision: amyloid nucleation score compared against 1; not below it gives T, below it gives F.

Example entries begin here.
| Substance | Class Label |
| --- | --- |
| VAWVYSVLKCVSGLVG | F |
| RSFLLVLAELCFT | T |
| FRGGSCYIVVWA | T |
| LLGGHYP | F |
| NLRYVFRFII | T |

Can `RVVFKHENLDMWCWMS` be said to have amyloid nucleation score at or above 1?
T

###

Assay: amyloid nucleation score (Sup35N fusion, yeast selection) (log enrichment); library NNK3; higher = more nucleation; inactive = no reads after selection
Attribute Measured: amyloid nucleation score

Worked cases, answers included:
| Substance | amyloid nucleation score |
| --- | --- |
| DAKKVCFGIKEDCWR | inactive |
| YLLLARIEKRFGFFVISDPG | inactive |
| FYVASFWYYPKSEHNGA | inactive |
| ELIDKLVT | inactive |
| TVMPIYQCSIGVKFSCDSAK | 1.53 |
| MFGFRNITK | 0.583 |
| RLFLINSGASDPNSQMSNLR | inactive |
| ARIYCSWYPLYTFYLIHSH | 0.644 |

Sample `TVPIMNVPD` — what was its amyloid nucleation score?
-0.428

Sample `KEYGLFLYLNFFLDWFNFIN` — what was its amyloid nucleation score?
inactive

Sample `ISSLGKKTW` — what was its amyloid nucleation score?
inactive

Sample `QRDVDLMVSIGTPTSNRYET` — what was its amyloid nucleation score?
inactive

Sample `HCVNRRKQYVRIRTYARLPC` — what was its amyloid nucleation score?
inactive

###

Assay: amyloid nucleation score (Sup35N fusion, yeast selection) (log enrichment); library NNK3; higher = more nucleation; inactive = no reads after selection
Attribute Measured: amyloid nucleation score

Worked cases, answers included:
| Substance | amyloid nucleation score |
| --- | --- |
| NQVRVSKSVNRAIDASPEWD | inactive |
| VFDCYHRTGVMETVCWNVFG | inactive |
| VHKYMGEVLHQYFPLMLYLF | 0.807 |
| PRCMYRLVFICGPGFRCSAG | -0.07 |
| VGLVMNCNKFYVLWFDQIGK | 2.27 |
| AKYFKFKHNVKGVHWKHVPE | -0.074 |

Sample `SRTLIIIVYFTTNIIVLEFY` — what was its amyloid nucleation score?
inactive

Sample `FLLFFAKWCLY` — what was its amyloid nucleation score?
inactive

Sample `PKCRMSMA` — what was its amyloid nucleation score?
inactive

###

Experiment: amyloid nucleation score (Sup35N fusion, yeast selection) (log enrichment); library NNK1; higher = more nucleation; inactive = no reads after selection
Each item that follows carries a reported amyloid nucleation score.
Answer with the value's number alone.

| Substance | amyloid nucleation score |
| --- | --- |
| RFYIMYLSGCAKTSFCGFVS | 6.4 |
| GTFVEISRYIDGCHLVFGNR | 2.38 |
| LTASLTAGVTRWVLRRFVYH | 0.588 |

Sample `GGCRIYLSSRM` — what was its amyloid nucleation score?
-0.583

Sample `KRCSYRS` — what was its amyloid nucleation score?
0.07

Sample `MWRKHR` — what was its amyloid nucleation score?
-0.543

Sample `WSSTTNWMLRPFKCANRLGW` — what was its amyloid nucleation score?
-0.529

Sample `VNGQYMRSHWFGDTTLLPIC` — what was its amyloid nucleation score?
-0.316

Sample `RLLRFGENFDCWKYLNVALE` — what was its amyloid nucleation score?
0.004

###

Test: amyloid nucleation score (Sup35N fusion, yeast selection) (log enrichment); library NNK1; higher = more nucleation; inactive = no reads after selection
Decision: amyloid nucleation score compared against 0.3; not below it gives fulfilled, below it gives not fulfilled.

| Substance | Class Label |
| --- | --- |
| DLAHYAW | not fulfilled |
| MAKSGNEI | not fulfilled |
| VVMNLLVLIGYLSSLYFLQA | not fulfilled |
| WQTSSNGLSLKATCLTYKSF | not fulfilled |
| LVSDSYNSLSLQDNLALLLI | not fulfilled |
| CHSINLGLNPFKYVNLPNGH | fulfilled |
| SILVRVSVR | fulfilled |
| KKYVMSNVTCVE | fulfilled |
| PWCFTLFALAPP | not fulfilled |
| LWRLEWLLSGQRGTSPAVRV | fulfilled |

Can `FLHFMVY` be said to have amyloid nucleation score at or above 0.3?
not fulfilled

Can `RNSMQILASLNNMDQRPLWR` be said to have amyloid nucleation score at or above 0.3?
fulfilled

Can `GCSVWDCWGLRVRSVGRSDR` be said to have amyloid nucleation score at or above 0.3?
fulfilled

Can `ASVAHLCGQLTVDTGFRITG` be said to have amyloid nucleation score at or above 0.3?
not fulfilled

Can `RMDSGIGDRSTGGDRTNGMW` be said to have amyloid nucleation score at or above 0.3?
not fulfilled

Can `VRHLRR` be said to have amyloid nucleation score at or above 0.3?
not fulfilled

###

Experiment: amyloid nucleation score (Sup35N fusion, yeast selection) (log enrichment); library NNK2; higher = more nucleation; inactive = no reads after selection
Each item that follows carries a reported amyloid nucleation score.
Answer with the value's number alone.

Worked cases, answers included:
| Substance | amyloid nucleation score |
| --- | --- |
| LTYLFVQSSVAWLSLMIH | 0.253 |
| GLSGFSPQFASATIAQSIP | 1.36 |
| EFIAISLSFVPLYRVVSGSG | -0.674 |
| ILSPTSL | 1.26 |
| GVDFTWDRGCIGGRGCSSRY | 5.96 |
| LDLMKSSLGCQKG | -0.001 |
| VPSFYYRIVTYKRAE | 2.74 |
| YLPRRSGRLRPGMRNNMPFR | 0.12 |
| LSLYIGFYMKGGSCRC | 0.007 |
| RYENPLYVCDWGFGASLFRP | 0.237 |

Sample `LFSCFKTEWFCITRMDGLIM` — what was its amyloid nucleation score?
5.73

Sample `LSWYDLSVQWNLYNIVGRRV` — what was its amyloid nucleation score?
2.06

Sample `VNCPRIMGSIGRLFVVYTQM` — what was its amyloid nucleation score?
8.32

Sample `NLSYSVVMTGISGAMTTCCF` — what was its amyloid nucleation score?
3.64

Sample `LISLTPRSSRPSNERNSSTL` — what was its amyloid nucleation score?
1.63

Sample `TFLSHEGRGLRCLYYHMMPG` — what was its amyloid nucleation score?
3.79

Data credit: the supplement of paper PMC12042874
